Provenance of the data: ChEMBL document CHEMBL5584327

test: Cytotoxicity against human SH-SY5Y cells assessed as cell viability at 5 uM by MTT assay (reference value: 100 +/- 0.22); assay type: toxicity, cell-based; conditions: read-out: Activity
Would you kindly list viability at 5 µM for each of these compounds?
Your reply should be a number followed by the unit it is expressed in.

Quick batch: viability at 5 µM for everything below.
1. C#CCOc1cccc(-c2cc(/C=C/c3ccccc3)ncn2)c1
2. C#CCOc1ccc(-c2cc(/C(C)=C\c3ccccc3)ncn2)cc1

-- reply
["90.7%", "96.3%"]

###

Would you mind telling me the reported inhibition of each entry?
biological target: Cholinesterase (Equus caballus); experiment: Inhibition of equine BuChE at 20 uM using butyryl-thiocholine iodide as substrate incubated for 30 min by DTNB reagent based Ellman's method relative to control
Answers are plain numbers, in %.

// known answers, use as guide
C#CCOc1cccc(-c2cc(/C=C/c3ccccc3)nc(C)n2)c1 :: 3.17
C#CCOc1ccc(-c2cc(/C(C)=C\c3ccccc3)ncn2)cc1 :: 9.69
C#CCOc1ccc(-c2cc(/C(C)=C/c3ccccc3)nc(N)n2)cc1 :: 3.04

# next compound below
-- ask // lookup inhibition for `C#CCOc1ccc(-c2cc(/C=C/c3ccccc3)nc(N)n2)cc1`
-- reply 2.12

###

biological target: Amine oxidase [flavin-containing] B (Homo sapiens); assay: Inhibition of human MAO-B at 10 uM using p-tyramine as substrate incubated for 30 mins by Amplex Red reagent based fluorescence analysis relative to control; settings: 0.5 h
Sequence (P27338 whole entry): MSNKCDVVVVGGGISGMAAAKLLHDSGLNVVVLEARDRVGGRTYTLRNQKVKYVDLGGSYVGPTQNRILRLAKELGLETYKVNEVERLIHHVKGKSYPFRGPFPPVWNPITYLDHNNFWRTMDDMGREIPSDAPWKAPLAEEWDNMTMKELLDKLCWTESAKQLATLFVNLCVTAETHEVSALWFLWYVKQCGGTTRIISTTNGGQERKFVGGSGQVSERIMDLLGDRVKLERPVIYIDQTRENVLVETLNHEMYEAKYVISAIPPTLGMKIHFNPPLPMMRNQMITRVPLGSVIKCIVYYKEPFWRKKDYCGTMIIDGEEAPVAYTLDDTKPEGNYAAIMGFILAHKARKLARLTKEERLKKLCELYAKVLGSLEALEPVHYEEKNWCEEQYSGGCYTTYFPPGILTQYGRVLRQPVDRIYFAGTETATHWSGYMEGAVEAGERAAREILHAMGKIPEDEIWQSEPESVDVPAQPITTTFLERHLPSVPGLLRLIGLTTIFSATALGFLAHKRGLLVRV
REPORTED_PROPERTY: inhibition at 10 µM
Numeric answer plus unit only.

Before answering, review these 5 worked examples.
C#CCOc1ccc(-c2cc(/C=C/c3ccccc3)nc(N)n2)cc1 :: 9.28%
C#CCOc1ccc(-c2cc(/C=C/c3ccccc3)nc(N)n2)cc1C :: 11.9%
C#CCOc1ccc(-c2cc(/C=C\c3ccccc3)ncn2)cc1 :: 67.5%
C#CCOc1cccc(-c2cc(/C=C/c3ccccc3)nc(C)n2)c1 :: 2.96%
C#CCOc1ccc(-c2cc(/C=C/c3ccccc3)nc(C)n2)cc1 :: 20.9%

Let us examine a further case.
-- ask Given `C#CCOc1cccc(-c2cc(/C=C/c3ccccc3)ncn2)c1` , state its recorded inhibition at 10 µM.
-- reply 76.4%

###

Please provide measured inhibition for the entries that follow.
biological target: Acetylcholinesterase (Electrophorus electricus); assay: Inhibition of electric eel AChE at 20 uM using acetylthiocholine iodide as substrate incubated for 30 min by DTNB reagent based Ellman's method relative to control
For clarity, give the value followed by its unit.

C#CCOc1cccc(-c2cc(/C=C/c3ccccc3)nc(C)n2)c1 :: 61.6%
C#CCOc1ccc(-c2cc(/C=C/c3ccccc3)nc(N)n2)cc1C :: 62.6%
C#CCOc1cccc(-c2cc(/C=C/c3ccccc3)ncn2)c1 :: 69.2%
C#CCOc1ccc(-c2cc(/C(C)=C/c3ccccc3)nc(N)n2)cc1 :: 71.3%
C#CCOc1cccc(-c2cc(/C(C)=C/c3ccccc3)ncn2)c1 :: 65.7%

Moving on to the next compound.
-- ask What measured inhibition goes with `C#CCOc1cccc(-c2cc(/C(C)=C\c3ccccc3)nc(N)n2)c1` ?
-- reply 66.3%
